Molecular target: T1, human RXFP1 (human, UniProt Q9HBX9 1-757)
T1 sequence (looked up): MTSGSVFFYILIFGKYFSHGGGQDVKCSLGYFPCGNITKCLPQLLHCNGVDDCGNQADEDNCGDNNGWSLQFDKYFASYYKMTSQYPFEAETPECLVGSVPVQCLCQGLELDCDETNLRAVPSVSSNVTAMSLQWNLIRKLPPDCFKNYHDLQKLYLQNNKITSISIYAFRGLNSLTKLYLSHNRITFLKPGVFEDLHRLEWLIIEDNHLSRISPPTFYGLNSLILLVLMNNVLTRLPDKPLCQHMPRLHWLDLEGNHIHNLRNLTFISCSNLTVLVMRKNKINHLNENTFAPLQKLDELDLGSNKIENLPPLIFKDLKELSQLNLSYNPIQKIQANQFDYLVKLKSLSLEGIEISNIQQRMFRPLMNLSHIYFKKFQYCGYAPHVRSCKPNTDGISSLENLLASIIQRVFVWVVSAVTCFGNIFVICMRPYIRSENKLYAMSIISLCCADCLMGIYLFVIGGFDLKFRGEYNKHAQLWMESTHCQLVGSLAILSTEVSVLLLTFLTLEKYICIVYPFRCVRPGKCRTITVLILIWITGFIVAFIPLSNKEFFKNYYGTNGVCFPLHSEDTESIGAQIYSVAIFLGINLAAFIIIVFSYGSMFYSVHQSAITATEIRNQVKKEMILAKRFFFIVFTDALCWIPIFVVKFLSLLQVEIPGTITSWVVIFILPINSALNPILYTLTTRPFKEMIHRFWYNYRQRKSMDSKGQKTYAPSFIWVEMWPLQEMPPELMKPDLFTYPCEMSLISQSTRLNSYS
Experiment: cell-based or functional assay
endpoint: Potency (cAMP, transient hRXFP1 in HEK293) (nM)
Value expressed in nM; do not type the unit.

SEQ ID NO: 111 (Fc fusion) DKTHTCPPCPAPEAAGGPSVFLFPPKPKDTLMISRTPEVTCVVVDVSHEDPEVKFNWYVDGVEVHNAKTKPREEQYNSTYRVVSVLTVLHQDWLNGKEYKCKVSNKALAAPIEKTISKAKGQPREPQVYTLPPSRDELTKNQVSLTCLVKGFYPSDIAVEWESNGQPENNYKTTPPVLDSDGSFFLYSKLTVDKSRWQQGNVFSCSVLHEALHSHYTQKSLSLSPGEGGSDSWQEEVIKLCGRELVRAQIAICGKSTASDAAGAQAQAGARQLYSALANKCCHVGCTKQSLAQFC; 3.5

Exam item: // fetch Potency (cAMP, transient hRXFP1 in HEK293) given entry SEQ ID NO: 101 (Fc fusion) DKTHTCPPCPAPEAAGGPSVFLFPPKPKDTLMISRTPEVTCVVVDVSHEDPEVKFNWYVDGVEVHNAKTKPREEQYNSTYRVVSVLTVLHQDWLNGKEYKCKVSNKALAAPIEKTISKAKGQPREPQVYTLPPSRDELTKNQVSLTCLVKGFYPSDIAVEWESNGQPENNYKTTPPVLDSDGSFFLYSKLTVDKSRWQQGNVFSCSVLHEALHSHYTQKSLSLSPGEGGSDSWQEEVIKLCGRELVRAQIAICGQSTASDAAGAEAEAGARQLYSALANKCCHVGCTKRSLAQFC
Marked response: 29.4

Provenance of the data: patent US20250333467A1
